# Tested on: 3T3 fibroblast cells
# experimental-details: In vitro phototoxicity assay (neutral red; UV light-treated vs dark control plates)
# Type: cell-based
# particulars: UV light 50 minutes

| smiles-code | Photo Toxicity UV Tox50 |
| --- | --- |
| CN(C)[C@H]1C(O)=C(C(N)=O)C(=O)[C@@]2(O)C(O)=C3C(=O)c4c(O)ccc(-c5cnc6ccccc6c5)c4C[C@H]3C[C@@H]12 | >159.48 µM |
| CN1CCN(Cc2cccc(-c3ccc(O)c4c3C[C@H]3C[C@H]5[C@H](N(C)C)C(O)=C(C(N)=O)C(=O)[C@@]5(O)C(O)=C3C4=O)c2)CC1 | >200 µM |
| CN(C)CC(=O)N1CC=C(c2ccc(O)c3c2C[C@H]2C[C@H]4[C@H](N(C)C)C(O)=C(C(N)=O)C(=O)[C@@]4(O)C(O)=C2C3=O)CC1 | >145.35 µM |

----------
Reported MIC values for the following molecules.
# Test system: gram negative bacteria
# experimental-details: In vitro anti-bacterial activity assay (broth dilution MIC), gram negative bacteria
# Type: cell-based, E. coli
# particulars: Escherichia coli, 18 h, E. coli MG 1655; read-out: Median MIC's G− E. coli MG 1655

| smiles-code | MIC, µg/mL |
| --- | --- |
| CN1CCN(C(=O)c2cccc(-c3ccc(O)c4c3C[C@H]3C[C@H]5[C@@H](N(C)C)C(O)=C(C(N)=O)C(=O)[C@@]5(O)C(O)=C3C4=O)c2)CC1 | 64 |
| COCCNC(=O)c1ccc(-c2ccc(O)c3c2C[C@H]2C[C@H]4[C@H](N(C)C)C(O)=C(C(N)=O)C(=O)[C@@]4(O)C(O)=C2C3=O)o1 | 32 |
| CN(C)CCN(C)Cc1ccc(-c2ccc(O)c3c2C[C@H]2C[C@H]4[C@H](N(C)C)C(O)=C(C(N)=O)C(=O)[C@@]4(O)C(O)=C2C3=O)o1 | 4 |
| CN(C)CCNC(=O)c1ccc(O)c2c1C[C@H]1C[C@H]3[C@H](N(C)C)C(O)=C(C(N)=O)C(=O)[C@@]3(O)C(O)=C1C2=O | 64 |
| CN(C)CCC(=O)c1ccc(O)c2c1C[C@H]1C[C@H]3[C@H](N(C)C)C(O)=C(C(N)=O)C(=O)[C@@]3(O)C(O)=C1C2=O | 16 |
| CC(C)N(C)CC(=O)c1ccc(O)c2c1C[C@H]1C[C@H]3[C@H](N(C)C)C(O)=C(C(N)=O)C(=O)[C@@]3(O)C(O)=C1C2=O | 0.25 |

----------
# experimental-details: in vitro
# Assay type: cell-based
# particulars: Chinese hamster, Cytotox. CHO-K1
List of IC50 at 24 h values.
recorded-endpoint: IC50 at 24 h

| compound | measurement |
| --- | --- |
| CN(C)CCNC(=O)c1cccc(-c2ccc(O)c3c2C[C@H]2C[C@H]4CC(O)=C(C(N)=O)C(=O)[C@@]4(O)C(O)=C2C3=O)c1 [Z] | > 15.9 µM |
| COCCNCC(=O)c1ccc(O)c2c1C[C@H]1C[C@H]3[C@H](N(C)C)C(O)=C(C(N)=O)C(=O)[C@@]3(O)C(O)=C1C2=O [AG] | > 158 µM |
| CC(=O)NCCC(=O)c1ccc(O)c2c1C[C@H]1C[C@H]3[C@H](N(C)C)C(O)=C(C(N)=O)C(=O)[C@@]3(O)C(O)=C1C2=O [CI] | > 160 µM |
